Measured melting point accompanies every entry in the list below.

Here's what some known entries look like.
# molecule, assayResult
records = [
    ("CCOc1ccc(/C=C/c2cc(OC)cc(OC)c2)cc1", "54 to 55 °C"),
    ("Nc1nc(C(Br)Br)nc(C(Br)Br)n1", "171 to 173 °C"),
    ("Nc1cc(CCC(=O)NC2CCc3ccccc32)ccc1O (stereo not drawn)", "130 to 131 °C"),
    ("CC(=O)Nc1ccc(Sc2c(NCC3CC3)cc(C(=O)O)cc2S(N)(=O)=O)cc1", "200 to 204 °C"),
    ("CCOC(=O)c1nc(C)n2c1CN=C(c1ccccc1F)c1cc(C#N)ccc1-2", "272 to 274 °C"),
    ("CCS(=O)(=O)Nc1cc(-n2nc(C(F)F)n(C)c2=S)c(F)cc1C(N)=S", "183 °C"),
]

Return reported melting point; argument: Cc1ccc(-c2cc(F)c(F)cc2-c2ccc(S(N)(=O)=O)cc2)cc1C
133 to 134 °C

Also, O=Cc1ccc2c(c1)OCC(=O)N2 please.
178 to 180 °C
